Biological target: human Y2 receptor (human) (UniProt P49146)
Sequence (P49146 whole entry): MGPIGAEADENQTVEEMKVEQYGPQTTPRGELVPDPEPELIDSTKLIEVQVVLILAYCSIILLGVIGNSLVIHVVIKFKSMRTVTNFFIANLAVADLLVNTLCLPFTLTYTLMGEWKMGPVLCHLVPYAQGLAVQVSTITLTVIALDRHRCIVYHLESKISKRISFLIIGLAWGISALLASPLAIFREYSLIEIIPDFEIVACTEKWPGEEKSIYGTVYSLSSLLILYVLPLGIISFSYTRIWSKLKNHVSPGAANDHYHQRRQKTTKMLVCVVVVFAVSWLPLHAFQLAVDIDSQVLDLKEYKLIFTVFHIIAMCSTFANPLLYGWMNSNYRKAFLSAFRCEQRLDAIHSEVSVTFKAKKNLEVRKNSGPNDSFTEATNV
Assay: RBA: [125I]-PYY displacement, hY2R/CHO membranes
Non-standard residues stand in square brackets, D forms with d. *: point of attachment. Phe(4-F) = N[C@@H](Cc1ccc(F)cc1)C(=O)O; Cha = N[C@@H](CC1CCCCC1)C(=O)O; Isobutyryl = CC(C)C(=O)*; dNMeA = CN[C@H](C)C(=O)O; Abu = CC[C@H](N)C(=O)O; Aib = CC(C)(N)C(=O)O
Experimental endpoint: IC50 Ratio (vs PYY(3-36))
Numbers only.

- Binder: "Isobutyryl-R[Abu][Cha][Phe(4-F)]NL[Aib]TRQR[Cha]-NH2 (SMILES CC[C@H](NC(=O)[C@H](CCCNC(=N)N)NC(=O)C(C)C)C(=O)N[C@@H](CC1CCCCC1)C(=O)N[C@@H](Cc1ccc(F)cc1)C(=O)N[C@@H](CC(N)=O)C(=O)N[C@@H](CC(C)C)C(=O)NC(C)(C)C(=O)N[C@H](C(=O)N[C@@H](CCCNC(=N)N)C(=O)N[C@@H](CCC(N)=O)C(=O)N[C@@H](CCCNC(=N)N)C(=O)N[C@@H](CC1CCCCC1)C(N)=O)[C@@H](C)O) [Isobutanoyl-[Abu26, Cha27,36, Phe(4F)28, Aib31]-PYY(25-36)]"
  IC50 Ratio (vs PYY(3-36)): 23

IC50 Ratio (vs PYY(3-36)) for Ac-[dNMeA]S[dP]RH[Cha][Cha]NL[Aib]TRQR[Cha]-NH2 (SMILES CC(=O)N(C)[C@H](C)C(=O)N[C@@H](CO)C(=O)N1CCC[C@@H]1C(=O)N[C@@H](CCCNC(=N)N)C(=O)N[C@@H](Cc1c[nH]cn1)C(=O)N[C@@H](CC1CCCCC1)C(=O)N[C@@H](CC1CCCCC1)C(=O)N[C@@H](CC(N)=O)C(=O)N[C@@H](CC(C)C)C(=O)NC(C)(C)C(=O)N[C@H](C(=O)N[C@@H](CCCNC(=N)N)C(=O)N[C@@H](CCC(N)=O)C(=O)N[C@@H](CCCNC(=N)N)C(=O)N[C@@H](CC1CCCCC1)C(N)=O)[C@@H](C)O) [Ac-[D-MeAla22, D-Pro24, Cha27,28,36, Aib31]-PYY(22-36)] is 3.5

Cited source for all entries: patent US20120172293A1
